- System: SK-MEL-2
- Assay method text: NCI tumour cell line growth inhibition, 48 h
Calls of active or inactive are those of the source. Cut-off read from the data, not from the text of the source: active = GI50 up to about 1.1 µM and inactive = higher.
Please answer using one outcome listed in Yes for active, No for inactive

Examples from the recorded data:
* COc1cccc(NC(=O)CC(=O)NNCC(=O)Nc2nnc(-c3ccc(N(CCC#N)S(=O)(=O)c4ccccc4)cc3)s2)c1 | No
* Cc1cc2c(=O)cc(-c3ccc(O)cc3)oc2c(C(=O)O)c1C | No
* O=C1Nc2ccc(Br)cc2/C1=C/C(=O)c1ccccc1 | No
* NNc1nc2ccccc2s1 | No
* COc1cccc2c1C(=O)c1c(O)c3c(c(O)c1C2=O)C[C@@](O)(C(=O)CO)CC3OC1CC(NCCOCC(OC(C)=O)OC(C)=O)C(O)C(C)O1 (stereo partly specified) | Yes

Q) // param item: COc1cccc2c1C1(O)C2CCCC12OCCCO2 (stereo unspecified) ; yields the recorded call
A) No

----------
- System: HOP-18
- Assay method text: NCI tumour cell line growth inhibition, 48 h
Active and inactive are the calls of the source. Cut-off read from the data, not from the text of the source: active = GI50 up to about 1.1 µM and inactive = higher.
Please answer using one outcome listed in True = active, False = inactive

* C=CCSc1ncnc2c1ncn2C1OC(CO)C(O)C1O (configuration not stated) | False
* Cc1cc2c(C)nn(Cc3ccc(Cl)cc3Cl)c2c(C#N)c1C | False
* CS(=O)(=O)c1nc(Cl)c(Cl)c(C#N)c1Cl | False

Q) // param item: N=C(c1ccccc1)N(O)C1CCCCC1 ; yields the recorded call
A) False

Q) // param item: CCOC(=O)C(C)N1C(=O)c2ccccc2S1(=O)=O (configuration not stated) ; yields the recorded call
A) False

Q) // param item: COC1CCC(=C2C(=O)OC(C)(C)OC2=O)N1 (configuration not stated) ; yields the recorded call
A) False

Q) // param item: COc1cccc2c1C(=O)c1c(O)c3c(c(O)c1C2=O)C[C@@](O)(C(=O)CO)CC3OC1CC(NCCOCC(OC(C)=O)OC(C)=O)C(O)C(C)O1 (some centres not stated) ; yields the recorded call
A) True

Q) // param item: COc1ccc(/C(Cl)=C(\C=O)c2ccc([N+](=O)[O-])cc2)cc1 ; yields the recorded call
A) False

Q) // param item: CCCCCCCCCCCCCCCC(=O)OCC1OC(N2C(=O)/C(=N\NC(N)=S)c3ccc([N+](=O)[O-])cc32)C(OC(C)=O)C1OC(C)=O (configuration not stated) ; yields the recorded call
A) False

Q) // param item: CC1=C(C)C(=O)c2c(cc3c4ccccc4ccn23)C1=O ; yields the recorded call
A) False

Q) // param item: COc1ccc2c(c1)c(Cc1c(C)n(C)c3ccc(OC)cc13)c(C)n2C ; yields the recorded call
A) False

Q) // param item: CC(C)(C)[Si](C)(C)OC1C(=O)C[C@H]2CCCC[C@@H]12 (some centres not stated) ; yields the recorded call
A) False

----------
- System: MDA-N
- Assay method text: NCI tumour cell line growth inhibition, 48 h
The source made the active and inactive calls. Cut-off read from the data, not from the text of the source: active = GI50 up to about 1.1 µM and inactive = higher.
Please answer using one outcome listed in true (active), false (inactive)

Examples from the recorded data:
- CSCCCNC(=O)[C@H](CSC)NC(=O)c1csc(CCNC(=O)[C@@H](NSc2ccccc2[N+](=O)[O-])C(C)O)n1 (stereo partly specified): false
- C#CC(C)(C)Oc1cc(OC)c2c(=O)c3ccccc3n(C)c2c1: false
- CC(C)NC(=O)OCc1c(COC(=O)NC(C)C)c(-c2cc[n+](COC(=O)CC(C)(C)C)cc2)n2c1CCC2: false
- COc1ccc(C2=C(OC(C)=O)c3cccn3-c3ccc(Cl)cc3S2)cc1: false
- COc1cc2cc(C(=O)N3CC(CCl)c4ccc(NCCN)cc43)[nH]c2c(OC)c1OC (stereo unspecified): true
- CN1C(=O)c2ccccc2NC(=O)C12O[C@@H]2c1ccccc1 (stereo partly specified): false
- C=CC(C)(C)N[C@@H](C(=O)N1CCC[C@H]1c1nc(-c2nc(C(=O)OCC=C(C)C)c(C)o2)c(C)o1)C(C)C: false
- COC(=O)[C@H](Cc1ccccc1)NC(=O)[C@H](Cc1ccccc1)NC(=O)[C@@H]1CCCN1C(=O)N[C@H]1C2C=CC(C2)C1C(=O)N1CCC[C@H]1C(=O)N[C@@H](C)C(=O)N[C@H](C(=O)OC)C(C)C (stereo partly specified): false

Q) // param item: O=C1c2ccccc2C(=O)c2c1ccc1c3ccccc3n(-c3ccccc3)c21 ; yields the recorded call
A) false

Q) // param item: O=S1(=O)c2ccccc2NC(=S)N1c1ccccc1 ; yields the recorded call
A) false

Q) // param item: CS(=O)(=O)c1nc(Cl)c(Cl)c(C#N)c1Cl ; yields the recorded call
A) false

Q) // param item: CC1=NNC(=O)C1C1CC(c2c[nH]c3ccccc23)=NNC1=O (stereo unspecified) ; yields the recorded call
A) false

Q) // param item: CCOCCOC(=O)C1CCC(=O)N1CN(C(C)=O)c1cc(OC)ccc1OC (stereo unspecified) ; yields the recorded call
A) false

Q) // param item: CC(=O)Nc1ccc(/C=C/[N+](=O)[O-])cc1 ; yields the recorded call
A) false

Q) // param item: O=C1NCC(CSc2nc3cc(C4CCCc5c4[nH]c4ccccc54)ccc3o2)N1 (stereo unspecified) ; yields the recorded call
A) false

Q) // param item: O=C1N/N=C\c2ccc(cc2)OCc2cccc(n2)COc2ccc(cc2)/C=N\NC1=O ; yields the recorded call
A) false

----------
- Test system: A498
- Assay method text: NCI tumour cell line growth inhibition, 48 h
Activity calls are given as the source filed them. No stated cut-off is given here; in the data, active = GI50 up to about 1.1 µM and inactive = higher.
Please answer using one outcome listed in active, inactive

Examples from the recorded data:
* COc1cc2cc(C(=O)N3CC(CCl)c4ccc(NCCN)cc43)[nH]c2c(OC)c1OC (stereo not drawn) | active
* COc1ccc2c(c1)c(Cc1c(C)n(C)c3ccc(OC)cc13)c(C)n2C | inactive
* O=C1C=CC(=O)[C@H]2C3C=CC(C4C3C3(Cl)C(Cl)=C(Cl)[C@]4(Cl)C3(Cl)Cl)[C@@H]12 (stereo partly drawn) | inactive

Here's the next entry for you.
Q) // param item: COc1cc2c(cc1OC)-c1cc3ccccc3c(=O)n1CCC2 ; yields the recorded call
A) inactive

----------
- Test system: RXF 393
- Assay method text: NCI tumour cell line growth inhibition, 48 h
Activity calls are given as the source filed them. Rule as the data show it: active = GI50 up to about 1.1 µM and inactive = higher.
Property label: GI50

The following molecules have reported results that may help.
• O/N=N/c1ccccn1.OCC1OC2OC3C(CO)OC(OC4C(CO)OC(OC5C(CO)OC(OC6C(CO)OC(OC7C(CO)OC(OC1C(O)C2O)C(O)C7O)C(O)C6O)C(O)C5O)C(O)C4O)C(O)C3O (stereo not given) = > 100 µM (inactive)
• CC1=C(O)C(=O)C2C(=O)C1C(C)C2c1ccc(Cl)cc1 (stereo not given) = > 100 µM (inactive)

Q) Indicate its recorded GI50; the molecule in question is O=C1Nc2ccc(Br)cc2/C1=C/C(=O)c1ccccc1
A) 1.95 µM (inactive)

Q) Indicate its recorded GI50; the molecule in question is COc1ccc(NC(=O)/C(CC2=Nc3ccc([N+](=O)[O-])cc3NC2O)=N\NC(=O)C[N+](C)(C)C)c(OC)c1 (stereo not given)
A) 21.6 µM (inactive)

Q) Indicate its recorded GI50; the molecule in question is COc1ccc2c(c1)c(Cc1c(C)n(C)c3ccc(OC)cc13)c(C)n2C
A) 47.8 µM (inactive)

----------
- Test system: A498
- Assay method text: NCI tumour cell line growth inhibition, 48 h
Active and inactive are the calls of the source. No stated cut-off is given here; in the data, active = GI50 up to about 1.1 µM and inactive = higher.
Please answer using one outcome listed in active, inactive

• COc1ccc(/C(Cl)=C(\C=O)c2ccc(Cl)c(Cl)c2)cc1OC = inactive
• C=CCNC(=S)NC=C(C(N)=O)C(N)=O = active
• COc1cc2c3cc1Oc1c(OC)c(OC)cc4c1C(Cc1ccc(cc1)Oc1cc(ccc1O)CC3N(C)CC2)N(C)CC4 (stereo not given) = inactive
• Cc1cn([C@H]2C[C@@H]3[C@@H](COC(CCl)N3O)O2)c(=O)[nH]c1=O (stereo not given in full) = inactive

Here's the next entry for you.
Q) // param item: N#Cc1nc(-c2cnccn2)oc1N ; yields the recorded call
A) inactive

----------
- System: MDA-N
- Assay method text: NCI tumour cell line growth inhibition, 48 h
Activity calls are given as the source filed them. Cut-off read from the data, not from the text of the source: active = GI50 up to about 1.1 µM and inactive = higher.
Property label: GI50

* O=C1C=C2CC[C@H]3[C@@H]4CC[C@H](Oc5c6ccccc6nc6ccccc56)[C@H]4CC[C@@H]3[C@H]2CC1 | 21.4 µM (inactive)

Q) Indicate its recorded GI50; the molecule in question is Cc1[nH]n(-c2nc3c(c(=O)[nH]2)CCCC3)c(=O)c1CCO
A) > 100 µM (inactive)

Q) Indicate its recorded GI50; the molecule in question is C[C@@]12C[C@@H](c3ccccc3O1)N1CCCCSC1=N2
A) > 100 µM (inactive)

----------
- Tested on: OVCAR-3
- Assay method text: NCI tumour cell line growth inhibition, 48 h
Calls of active or inactive are those of the source. Cut-off read from the data, not from the text of the source: active = GI50 up to about 1.1 µM and inactive = higher.
Each entry below carries its reported GI50.

- CC(C)(C)C1=CC(=C(P(=O)(O)O)P(=O)(O)O)C=C(C(C)(C)C)C1=O: > 50 µM (inactive)
- N#C/N=C1/c2ccccc2/C(=N/C#N)c2cc(CO)ccc21: 26.9 µM (inactive)

Now take the following molecule into account.
Q) Indicate its recorded GI50; the molecule in question is C1=Cc2nccc3cc4c(c(c23)N1)OCO4
A) 10.9 µM (inactive)
